# System: KARPAS-422
# experiment-description: Combination study, ATPLite 72 h, dose matrix (Synergy Score, CI50)
# assay-conditions: combination with Compound 1, 72 h
Where a name gives a salt, the structure may show the parent alone.

>  <molecule>
COc1ccc(-c2ccc3c(N4CCOC[C@@H]4C)nc(N4CCOC[C@@H]4C)nc3n2)cc1CO [AZD 8055]

>  <Synergy Score inhibition>
A2 (A2=1 to <3)

$$$$
>  <molecule>
CCCCCCCCCCCCCCCCCCOP(=O)([O-])OC1CC[N+](C)(C)CC1 [perifosine]

>  <Synergy Score inhibition>
A1 (A1=0.0001 to <1)

$$$$
>  <molecule>
NC1(c2ccc(-c3nc4ccn5c(=O)[nH]nc5c4cc3-c3ccccc3)cc2)CCC1 [MK-2206]

>  <Synergy Score inhibition>
A2 (A2=1 to <3)

$$$$
>  <molecule>
COc1cccc2c1C(=O)c1c(O)c3c(c(O)c1C2=O)C[C@@](O)(C(=O)CO)C[C@@H]3O[C@H]1C[C@H](N)[C@H](O)[C@H](C)O1 [Doxorubicin HCl]

>  <Synergy Score inhibition>
A1 (A1=0.0001 to <1)

$$$$
>  <molecule>
CC(=O)Nc1cccc(-n2c(=O)n(C3CC3)c(=O)c3c(Nc4ccc(I)cc4F)n(C)c(=O)c(C)c32)c1 [trametinib]

>  <Synergy Score inhibition>
A2 (A2=1 to <3)

$$$$
>  <molecule>
CC(C)C[C@H](NC(=O)[C@H](CCc1ccccc1)NC(=O)CN1CCOCC1)C(=O)N[C@@H](Cc1ccccc1)C(=O)N[C@@H](CC(C)C)C(=O)[C@@]1(C)CO1 [carfilzomib]

>  <Synergy Score inhibition>
A1 (A1=0.0001 to <1)

$$$$

====

# System: Jeko-1
# experiment-description: Combination study, ATPLite 72 h, dose matrix (Synergy Score, CI50)
# assay-conditions: combination with Compound 1
Structures can show the parent of a compound that is named as a salt.

>  <compound>
COc1cccc2c1C(=O)c1c(O)c3c(c(O)c1C2=O)C[C@@](O)(C(=O)CO)C[C@@H]3O[C@H]1C[C@H](N)[C@H](O)[C@H](C)O1 [Doxorubicin HCl]

>  <Synergy Score growth inhibition>
A3 (A3=>3)

$$$$
>  <compound>
CC(=O)Nc1cccc(-n2c(=O)n(C3CC3)c(=O)c3c(Nc4ccc(I)cc4F)n(C)c(=O)c(C)c32)c1

>  <Synergy Score growth inhibition>
A1 (A1=0.0001 to <1)

$$$$
>  <compound>
CS(=O)(=O)N1CCN(Cc2cc3nc(-c4cccc5[nH]ncc45)nc(N4CCOCC4)c3s2)CC1

>  <Synergy Score growth inhibition>
A1 (A1=0.0001 to <1)

$$$$
>  <compound>
COc1ccc(-c2ccc3c(N4CCOC[C@@H]4C)nc(N4CCOC[C@@H]4C)nc3n2)cc1CO

>  <Synergy Score growth inhibition>
A3 (A3=>3)

$$$$
>  <compound>
CCCCCCCCCCCCCCCCCCOP(=O)([O-])OC1CC[N+](C)(C)CC1

>  <Synergy Score growth inhibition>
A1 (A1=0.0001 to <1)

$$$$
>  <compound>
O=C(NOC[C@H](O)CO)c1ccc(F)c(F)c1Nc1ccc(I)cc1F

>  <Synergy Score growth inhibition>
A1 (A1=0.0001 to <1)

$$$$
>  <compound>
C[C@@H]1C[C@H]2[C@@H]3CCC4=CC(=O)C=C[C@]4(C)[C@@]3(F)[C@@H](O)C[C@]2(C)[C@@]1(O)C(=O)CO

>  <Synergy Score growth inhibition>
A3 (A3=>3)

$$$$

These entries and their values trace back to patent US20240325398A1.
